EXPERIMENTAL_SYSTEM: human Phosphodiesterase 4A1 (PDE4A1), PDE4A (gene 5141)
ASSAY_PROCEDURE: NVS_ENZ_hPDE4A1: NovaScreen (NVS) Enzymatic Assay for human Phosphodiesterase 4A1 (PDE4A1) (AID 2283191)
Inconclusive results are not listed. The source made the active and inactive calls. How the source made its calls: active means hit-call score of the fitted dose curve at least 0.9, where 1 is the maximum; inconclusive means response in the unintended direction; inactive means score below 0.9.
API: response.call in Y for active, N for inactive

- MOLECULE: "COP(=S)(OC)Oc1ccc([N+](=O)[O-])c(C)c1"
  CLASS: "N"
- MOLECULE: "CC(C)Nc1nc(Cl)nc(NC(C)C)n1"
  CLASS: "Y"
- MOLECULE: "COC(=O)NC(=S)Nc1ccccc1NC(=S)NC(=O)OC"
  CLASS: "N"
- MOLECULE: "CCOP(=O)(OCC)Oc1nc(Cl)c(Cl)cc1Cl"
  CLASS: "Y"

Okay, next one:
# input What is the recorded call for this molecule in the test? CCNP(=S)(OC)O/C(C)=C/C(=O)OC(C)C (stereo not given)
# output Y
